Origin of values: patent US20090234014A1

- measurement_target: mPGES-1 (Homo sapiens, UniProt O14684)
- Construct: made in house; host or cells: E. coli (membrane fraction)
- assay_explanation: mPGES-1 assay: conversion of PGH2 to PGE2, PGE2 measured by HPLC
- Assay type: biochemical
- run_parameters: mPGES-1 expressed in E. coli, membrane fraction; 25 min preincubation with inhibitor, 60 s with PGH2, room temperature; read-out: IC50 values
pIC50: −log10 of the molar value.
measure: pIC50

[
  {
    "smiles_representation": "Cc1ccc(NS(=O)(=O)c2cc(S(=O)(=O)Nc3ccc(C)cc3)c3ccccc3c2)cc1",
    "measured": 5.43
  },
  {
    "smiles_representation": "Cc1cc(C)c(NS(=O)(=O)c2cc(S(=O)(=O)Nc3c(C)cc(C)cc3C)c3cc(O)ccc3c2)c(C)c1",
    "measured": 5.96
  },
  {
    "smiles_representation": "Cc1ccc(Cl)cc1NS(=O)(=O)c1cc(S(=O)(=O)Nc2cc(Cl)ccc2C)c2ccccc2c1",
    "measured": 5.89
  },
  {
    "smiles_representation": "Cc1cccc(C)c1NS(=O)(=O)c1cc(S(=O)(=O)Nc2c(C)cccc2C)c2ccccc2c1",
    "measured": 5.77
  },
  {
    "smiles_representation": "Cc1c(Cl)cccc1NS(=O)(=O)c1cc(S(=O)(=O)Nc2cccc(Cl)c2C)c2ccccc2c1",
    "measured": 5.77
  }
]

(1) Cc1ccc(Cl)cc1NS(=O)(=O)c1cc(S(=O)(=O)Nc2cc(Cl)ccc2C)c2cc(O)ccc2c1
(2) O=S(=O)(Nc1ccccc1C(F)(F)F)c1cc(S(=O)(=O)Nc2ccccc2C(F)(F)F)c2cc(O)ccc2c1
*Q* Which gives the smaller pIC50 number: 1 or 2 ? Answer with the label corresponding to your selection.
*A* 2
(2: 5.39, 1: 5.92)

====

- measurement_target: mPGES-1 (Homo sapiens, UniProt O14684)
- Construct: made in house; host or cells: E. coli (membrane fraction)
- Sequence (O14684 1-152): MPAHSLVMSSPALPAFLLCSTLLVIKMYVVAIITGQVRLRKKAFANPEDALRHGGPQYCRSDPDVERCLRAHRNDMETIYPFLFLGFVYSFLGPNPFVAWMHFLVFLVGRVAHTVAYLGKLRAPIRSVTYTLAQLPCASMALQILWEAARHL
- assay_explanation: mPGES-1 assay: conversion of PGH2 to PGE2, PGE2 measured by HPLC
- Format: biochemical
- run_parameters: mPGES-1 expressed in E. coli, membrane fraction; stated as 10 μM or below; read-out: concentration exhibiting 50% inhibition of mPGES-1
pIC50: −log10 of the molar value.
measure: pIC50

*Q* Param item = `O=S(=O)(Nc1ccccc1)c1cc(S(=O)(=O)Nc2ccccc2)c2cc(O)ccc2c1` ; retrieve measured pIC50.
*A* ≥ 5.00
